- measured-target: Histone acetyltransferase KAT5 (Homo sapiens)
- Sequence (Q92993 whole entry): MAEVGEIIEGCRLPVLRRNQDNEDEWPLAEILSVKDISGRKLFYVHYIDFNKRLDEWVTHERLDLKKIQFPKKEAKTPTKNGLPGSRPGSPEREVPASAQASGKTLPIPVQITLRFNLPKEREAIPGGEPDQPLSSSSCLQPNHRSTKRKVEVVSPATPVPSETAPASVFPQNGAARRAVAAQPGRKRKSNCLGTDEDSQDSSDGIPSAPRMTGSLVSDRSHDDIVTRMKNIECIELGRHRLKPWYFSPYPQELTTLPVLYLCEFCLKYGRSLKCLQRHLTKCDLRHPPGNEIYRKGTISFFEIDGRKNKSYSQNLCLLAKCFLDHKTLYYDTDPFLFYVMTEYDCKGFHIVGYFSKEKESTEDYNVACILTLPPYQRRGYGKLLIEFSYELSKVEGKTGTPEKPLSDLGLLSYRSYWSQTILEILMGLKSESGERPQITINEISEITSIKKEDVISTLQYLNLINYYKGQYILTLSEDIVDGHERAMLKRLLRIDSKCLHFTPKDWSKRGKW
- test-name: Acetyltransferase Biochemical Assay

[
  {
    "molecule": "COc1ccccc1-c1nnc(NS(=O)(=O)C2CCNCC2)s1 [US20240277683, Example 129]",
    "IC50": "> 125 µM"
  },
  {
    "molecule": "O=S(=O)(Nc1cc(-c2ccccc2)on1)C1CC1 [US20240277683, Example 29]",
    "IC50": "> 125 µM"
  },
  {
    "molecule": "O=S(=O)(Nc1cc(-c2ccccc2)on1)c1ccc2c(c1)CCCC2 [US20240277683, Example 76]",
    "IC50": "> 125 µM"
  }
]

Reference source for all entries: BindingDB's records for patent US20240277683
